This collection of values is drawn from PubChem BioAssay.

Assay: basal HepG2 mitochondrial membrane potential changes, profiling panel, cell-based, JC-1 fluorescence, 24 h, 100 nL compound (AID 1167); note: test concentration not given here
Conditions: higher = more signal
// values below are reported z-score
Lab note: record the figure alone, no unit after it.

Sample answers from the record:
molecule	observedValue
Cc1c(NC(=O)CC#N)c(=O)n(-c2ccccc2)n1C	1.42
[N-]=[N+]=NCc1ccccc1C[C@@]1(C(=O)N2CCOCC2)N=C(c2ccc(OCCCO)cc2)O[C@@H]1c1ccccc1CN=[N+]=[N-]	0.883
O=C/C=C/c1ccc2c(c1)OCO2	1.4
COc1ccc(CCNC(=O)[C@@]2(Sc3ccc(C)cc3)CC(=O)N(Cc3ccccc3Cl)[C@@H]2c2ccc(CO)cc2I)cc1	0.167
COCCOC(=O)N1C(=O)[C@@]2(c3cc(C#CCNC(N)=O)ccc31)[C@H](c1ccc(O)cc1)N1[C@H](c3ccccc3)[C@H](c3ccccc3)OC(=O)[C@H]1[C@@H]2C(=O)Nc1nc2ccccc2s1	-2.95
CCOc1cc(C(O)C2C=CC3C(=O)N(c4ccccc4)C(=O)C3N2Nc2ccc([N+](=O)[O-])cc2)ccc1O (configuration not stated)	-2.36

Here is another molecule to look at.
// sample C=CCC(OC(C)=O)[C@@H]1[C@@H](N(Cc2ccc(-c3cccc(C(F)(F)F)c3)o2)C(=O)c2ccc(C)cc2)c2cc(OCCCO)ccc2N1C(=O)c1ccc(-c2ccccc2)cc1 (some centres not stated) , its z-score was 3.89
